# target-system: TRBV9+TRAV38 antigen
# assay-remarks: BLI (OctetRed 96), antigen on AR2G sensors, antibody 126-2 nM, 1:1 model; run 1
assay-metric: pKd
In plain terms, pKd is the concentration in mol/L turned into minus its base-10 logarithm.

anti-TRBV9-3 monoclonal antibody (antibody, human IgG1, kappa, V domains shown) VH: QIQLVQSGPELREPGESVKLSCKASGYTFTDYLVHWVKQAPGKGLKWMGWINTYTGTPTYADDFEGRFVFSLEASASTANLQISNLKNEDTATYFCARSWRRGIRGLGFDYWGQGVFVTVSS VL: DVQMTQSPYNLAASPGESVSINCKASKSINKYLAWYQQKPGKPNKLLIYDGSTLQSGIPSRFSGSGSGTDFTLTIRGLEPEDFGLYYCQQHNEYPPTFGAGTKLELKR    9.51

Requested field: pKd. Item: anti-TRBV9-1 monoclonal antibody (antibody, human IgG1, kappa, V domains shown) VH: QIQLVQSGPELREPGESVKLSCKASGYTFTDYLVHWVKQAPGKGLKWMGWINTYTGTPTYADDFEGRFVFSLEASASTANLQISNLKNEDTATYFCARSWRRGLRGLGFDYWGQGVFVTVSS VL: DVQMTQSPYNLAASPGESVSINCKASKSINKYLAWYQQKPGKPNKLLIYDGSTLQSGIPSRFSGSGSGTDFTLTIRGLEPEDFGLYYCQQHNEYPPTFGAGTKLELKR
9.38
